The origin of these recorded values is patent US8569288B2.

# tgt: central benzodiazepine receptor (BZD)
# method notes: Binding to central benzodiazepine receptor, [3H]flunitrazepam displacement on rat cerebral cortex membranes
# recorded conditions: 0.4 nM [3H]flunitrazepam, 4° C., 60 min; read-out: IC50 of reference ligand in BZD binding assay
experimental readout: pIC50
pIC50 here is simply -log10 of the concentration when that concentration is written in mol/L.

Request: # pIC50 lookup, item CN1C(=O)CN=C(c2ccccc2)c2cc(Cl)ccc21 [diazepam, reference compound]
Result: 7.80
